- target_desc: PIK3CA (UniProt P42336)
- Sequence (P42336 whole entry, looked up): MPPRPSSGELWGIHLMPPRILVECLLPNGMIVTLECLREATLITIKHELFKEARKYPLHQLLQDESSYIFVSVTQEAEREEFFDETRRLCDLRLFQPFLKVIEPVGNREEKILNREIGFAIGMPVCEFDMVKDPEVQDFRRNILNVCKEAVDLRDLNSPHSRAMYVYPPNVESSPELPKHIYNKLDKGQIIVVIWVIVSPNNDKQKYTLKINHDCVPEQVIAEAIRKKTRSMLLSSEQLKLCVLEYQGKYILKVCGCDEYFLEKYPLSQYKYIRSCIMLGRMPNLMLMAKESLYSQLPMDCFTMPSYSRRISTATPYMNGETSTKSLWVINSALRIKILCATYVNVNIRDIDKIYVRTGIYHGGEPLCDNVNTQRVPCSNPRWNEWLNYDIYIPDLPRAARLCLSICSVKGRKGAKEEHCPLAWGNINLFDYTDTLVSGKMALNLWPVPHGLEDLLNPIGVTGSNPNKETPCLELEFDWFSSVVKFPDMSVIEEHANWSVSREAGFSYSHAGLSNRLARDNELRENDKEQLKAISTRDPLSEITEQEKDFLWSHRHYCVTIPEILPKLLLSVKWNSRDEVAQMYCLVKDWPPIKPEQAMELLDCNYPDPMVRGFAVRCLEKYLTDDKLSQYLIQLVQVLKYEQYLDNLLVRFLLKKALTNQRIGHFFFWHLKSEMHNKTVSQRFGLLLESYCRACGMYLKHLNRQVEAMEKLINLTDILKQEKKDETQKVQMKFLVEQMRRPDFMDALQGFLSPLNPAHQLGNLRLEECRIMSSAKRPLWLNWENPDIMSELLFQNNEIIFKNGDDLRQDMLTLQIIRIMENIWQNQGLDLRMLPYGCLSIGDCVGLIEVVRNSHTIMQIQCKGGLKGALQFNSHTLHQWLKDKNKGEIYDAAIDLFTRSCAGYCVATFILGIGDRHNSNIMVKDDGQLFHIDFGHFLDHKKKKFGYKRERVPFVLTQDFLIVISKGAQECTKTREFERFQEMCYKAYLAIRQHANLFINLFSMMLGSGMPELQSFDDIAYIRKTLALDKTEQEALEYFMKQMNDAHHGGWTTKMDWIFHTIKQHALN
experimental_readout: IC50

State, for PIK3CA (UniProt P42336), measured IC50 of the compound listed here: "COc1ccc(-c2cc(=O)cc(N3CCOCC3)o2)cc1"
15 µM

Specify IC50 for "O=c1cc(N2CCOCC2)oc2cc(OCc3ccc(F)cc3)ccc12" , system PIK3CA (UniProt P42336).
95 µM

Report its IC50 with PIK3CA (UniProt P42336) as the test system: "O=c1cc(N2CCOCC2)oc2cc(OCc3ccc(Cl)cc3)ccc12"
> 100 µM

Specify the recorded IC50 for "O=c1cc(-c2ccc(Cl)cc2)oc(N2CCOCC2)c1" , system: PIK3CA (UniProt P42336).
10 µM

Look up and report IC50, with PIK3CA (UniProt P42336) as system, for "O=c1cc(-c2ccc(F)cc2)oc(N2CCOCC2)c1"
13 µM

Name the value of IC50 reported for "O=c1cc(N2CCOCC2)nc2c3ccccc3ccn12" when tested on PIK3CA (UniProt P42336).
750 µM

Fill in: IC50 on PIK3CA (UniProt P42336), entry "O=c1cc(-c2ccccc2)oc(N2CCOCC2)c1"
30 µM
